System: A498
Experiment: NCI single dose (10 µM) SRB screen
Type: cell-based, human
Conditions: renal cancer, 48 h
property_label: GI% A498

- compound: "COCCOC(=O)C1=C(C)NC(C)=C(C(=O)OC)C1c1cccc(C#N)c1 (racemic) [Compound 2d]"
  reading: "12%"
- compound: "COC(=O)C1=C(C)NC(C)=C(C(=O)OCc2ccccc2)C1c1cccc(C#N)c1 (racemic) [Compound 2e]"
  reading: "10%"
- compound: "CCOC(=O)C1=C(C)NC(C)=C(C(=O)OCc2ccccc2)C1c1cccc(C#N)c1 (racemic) [Compound 2l]"
  reading: "104%"

====

Tested on: TK-10
Experiment: NCI single dose (10 µM) SRB screen
Format: cell-based, human
Details: renal cancer, 48 h
property_label: GI% TK-10

- compound: "CCOC(=O)C1=C(C)NC(C)=C(C(=O)OCc2ccccc2)C1c1cccc(C#N)c1 (racemic)"
  reading: "16%"

====

System: Aspergillus flavus
Assay: Agar well diffusion method
Details: relative to clotrimazole

- molecule: "CCOC(=O)C1=C(C)NC(C)=C(C(=O)OCC)C1c1cccc(C#N)c1"
  % activity index, A. flavus / %: 64
- molecule: "COC(=O)C1=C(C)NC(C)=C(C(=O)OCc2ccccc2)C1c1cccc(C#N)c1 (racemic)"
  % activity index, A. flavus / %: 40
- molecule: "COC(=O)C1=C(C)NC(C)=C(C(=O)OC(C)(C)C)C1c1cccc(C#N)c1 (racemic)"
  % activity index, A. flavus / %: 28
- molecule: "CCOC(=O)C1=C(C)NC(C)=C(C(=O)OC(C)C)C1c1cccc(C#N)c1 (racemic)"
  % activity index, A. flavus / %: 48
- molecule: "COCCOC(=O)C1=C(C)NC(C)=C(C(=O)OCCOC)C1c1cccc(C#N)c1"
  % activity index, A. flavus / %: 76
- molecule: "COC(=O)C1=C(C)NC(C)=C(C(=O)OCC(C)C)C1c1cccc(C#N)c1 (racemic)"
  % activity index, A. flavus / %: 44

====

Tested on: B. subtilis
Assay: MIC, two-fold microbroth dilution method
Settings: Bacillus subtilis, read-out: MIC (µg/mL) B. subtilis
The label Satisfied is reserved for MIC strictly under 4 µg/mL; Not satisfied covers values equal to or above it.

- compound: "CC1=C(C(=O)OCc2ccccc2)C(c2cccc(C#N)c2)C(C(=O)OCc2ccccc2)=C(C)N1"
  target_system: "B. subtilis"
  label_class: "Not satisfied"
- compound: "O=C(O)c1cn(C2CC2)c2cc(N3CCNCC3)c(F)cc2c1=O [Ciprofloxacin, reference compound]"
  target_system: "B. subtilis"
  label_class: "Satisfied"
- compound: "CCOC(=O)C1=C(C)NC(C)=C(C(=O)OC)C1c1cccc(C#N)c1 (racemic)"
  target_system: "B. subtilis"
  label_class: "Satisfied"
- compound: "CCOC(=O)C1=C(C)NC(C)=C(C(=O)OCCOC)C1c1cccc(C#N)c1 (racemic)"
  target_system: "B. subtilis"
  label_class: "Not satisfied"
- compound: "COCCOC(=O)C1=C(C)NC(C)=C(C(=O)OCCOC)C1c1cccc(C#N)c1"
  target_system: "B. subtilis"
  label_class: "Satisfied"
- compound: "COC(=O)C1=C(C)NC(C)=C(C(=O)OC(C)C)C1c1cccc(C#N)c1 (racemic)"
  target_system: "B. subtilis"
  label_class: "Satisfied"

====

Test system: LOX IMVI
Test: NCI single dose (10 µM) SRB screen
Format: cell-based, human
Details: melanoma, 48 h
Item-by-item account of GI% LOX IMVI

- compound: "CC1=C(C(=O)OCC(C)C)C(c2cccc(C#N)c2)C(C(=O)OCC(C)C)=C(C)N1 [Compound 1d]"
  GI% LOX IMVI: "10%"
- compound: "CC1=C(C(=O)OC(C)(C)C)C(c2cccc(C#N)c2)C(C(=O)OC(C)(C)C)=C(C)N1 [Compound 1e]"
  GI% LOX IMVI: "10%"
- compound: "CCOC(=O)C1=C(C)NC(C)=C(C(=O)OCC(C)C)C1c1cccc(C#N)c1 (racemic) [Compound 2i]"
  GI% LOX IMVI: "20%"

====

System: NCI-H226
Assay: NCI single dose (10 µM) SRB screen
Assay type: cell-based, human
Conditions: non-small cell lung cancer, 48 h

- compound: "CCOC(=O)C1=C(C)NC(C)=C(C(=O)OCc2ccccc2)C1c1cccc(C#N)c1 (racemic) [Compound 2l]"
  target_system: "NCI-H226"
  GI% NCI-H226 / %: 41
- compound: "COC(=O)C1=C(C)NC(C)=C(C(=O)OCc2ccccc2)C1c1cccc(C#N)c1 (racemic) [Compound 2e]"
  target_system: "NCI-H226"
  GI% NCI-H226 / %: 31
- compound: "CCOC(=O)C1=C(C)NC(C)=C(C(=O)OCC(C)C)C1c1cccc(C#N)c1 (racemic) [Compound 2i]"
  target_system: "NCI-H226"
  GI% NCI-H226 / %: 22
- compound: "CC1=C(C(=O)OC(C)(C)C)C(c2cccc(C#N)c2)C(C(=O)OC(C)(C)C)=C(C)N1 [Compound 1e]"
  target_system: "NCI-H226"
  GI% NCI-H226 / %: 22
- compound: "CC1=C(C(=O)OCc2ccccc2)C(c2cccc(C#N)c2)C(C(=O)OCc2ccccc2)=C(C)N1 [Compound 1g]"
  target_system: "NCI-H226"
  GI% NCI-H226 / %: 46
- compound: "COC(=O)C1=C(C)NC(C)=C(C(=O)OCC(C)C)C1c1cccc(C#N)c1 (racemic) [Compound 2b]"
  target_system: "NCI-H226"
  GI% NCI-H226 / %: 10
- compound: "CC1=C(C(=O)OCC(C)C)C(c2cccc(C#N)c2)C(C(=O)OCC(C)C)=C(C)N1 [Compound 1d]"
  target_system: "NCI-H226"
  GI% NCI-H226 / %: 25

====

Tested on: LOX IMVI
Experiment: NCI single dose (10 µM) SRB screen
Type: cell-based, human
Conditions: melanoma, 48 h
property_label: GI% LOX IMVI (%)

- compound: "CC1=C(C(=O)OCc2ccccc2)C(c2cccc(C#N)c2)C(C(=O)OCc2ccccc2)=C(C)N1 [Compound 1g]"
  target_system: "LOX IMVI"
  property_label: "GI% LOX IMVI"
  reading: 65
- compound: "CCOC(=O)C1=C(C)NC(C)=C(C(=O)OCc2ccccc2)C1c1cccc(C#N)c1 (racemic) [Compound 2l]"
  target_system: "LOX IMVI"
  property_label: "GI% LOX IMVI"
  reading: 64

====

Test system: UACC-257
Test: NCI single dose (10 µM) SRB screen
Format: cell-based, human
Details: melanoma, 48 h
property_label: GI% UACC-257

- compound: "CC1=C(C(=O)OC(C)(C)C)C(c2cccc(C#N)c2)C(C(=O)OC(C)(C)C)=C(C)N1 [Compound 1e]"
  target_system: "UACC-257"
  reading: "16%"
- compound: "CC1=C(C(=O)OCC(C)C)C(c2cccc(C#N)c2)C(C(=O)OCC(C)C)=C(C)N1 [Compound 1d]"
  target_system: "UACC-257"
  reading: "17%"
- compound: "CC1=C(C(=O)OCc2ccccc2)C(c2cccc(C#N)c2)C(C(=O)OCc2ccccc2)=C(C)N1 [Compound 1g]"
  target_system: "UACC-257"
  reading: "36%"

====

Item-by-item account of GI% T-47D
Tested on: T-47D
Assay: NCI single dose (10 µM) SRB screen
Assay type: cell-based, human
Details: breast cancer, 48 h

- compound: "CC1=C(C(=O)OCC(C)C)C(c2cccc(C#N)c2)C(C(=O)OCC(C)C)=C(C)N1"
  GI% T-47D: "54%"
- compound: "COC(=O)C1=C(C)NC(C)=C(C(=O)OC(C)(C)C)C1c1cccc(C#N)c1 (racemic)"
  GI% T-47D: "12%"
- compound: "CCOC(=O)C1=C(C)NC(C)=C(C(=O)OCC(C)C)C1c1cccc(C#N)c1 (racemic)"
  GI% T-47D: "32%"
- compound: "COC(=O)C1=C(C)NC(C)=C(C(=O)OCC(C)C)C1c1cccc(C#N)c1 (racemic)"
  GI% T-47D: "25%"
- compound: "CC1=C(C(=O)OC(C)C)C(c2cccc(C#N)c2)C(C(=O)OC(C)C)=C(C)N1"
  GI% T-47D: "30%"

====

Tested on: OVCAR-4
Assay: NCI single dose (10 µM) SRB screen
Format: cell-based, human
Conditions: ovarian cancer, 48 h

- compound: "CCOC(=O)C1=C(C)NC(C)=C(C(=O)OCc2ccccc2)C1c1cccc(C#N)c1 (racemic) [Compound 2l]"
  GI% OVCAR-4: "28%"
- compound: "CCOC(=O)C1=C(C)NC(C)=C(C(=O)OCC(C)C)C1c1cccc(C#N)c1 (racemic) [Compound 2i]"
  GI% OVCAR-4: "12%"
- compound: "CC1=C(C(=O)OCc2ccccc2)C(c2cccc(C#N)c2)C(C(=O)OCc2ccccc2)=C(C)N1 [Compound 1g]"
  GI% OVCAR-4: "33%"
- compound: "CC1=C(C(=O)OCC(C)C)C(c2cccc(C#N)c2)C(C(=O)OCC(C)C)=C(C)N1 [Compound 1d]"
  GI% OVCAR-4: "16%"
